Listed next: entries and their corresponding MIC.
Tested on: intracellular S. aureus NRS384 in THP-1 macrophages
Experiment: Intracellular killing assay 2 (rifamycin analogs, S. aureus in THP-1 macrophages)
Format: cell-based, Staphylococcus aureus
Conditions: Staphylococcus aureus, NRS384, 2 h; lowest concentration giving intracellular S. aureus below limit of detection (50 cfu/mL) in THP-1 macrophages; median of at least two experiments; read-out: S. aureus Intracellular killing MIC

>  <Compound>
CCN(CC)CCOc1ccc2nc3c4c5c6c(C)c(O)c4c(=O)c(c-3oc2c1)NC(=O)/C(C)=C\C=C\[C@H](C)[C@H](O)[C@@H](C)[C@@H](O)[C@@H](C)[C@H](OC(C)=O)[C@H](C)[C@@H](OC)/C=C/O[C@@](C)(O6)C5=O [Analog 16t]

>  <Target system>
intracellular S. aureus NRS384 in THP-1 macrophages

>  <Inequality operator>
=

>  <MIC, µM>
1

$$$$
>  <Compound>
CO[C@H]1/C=C/O[C@@]2(C)Oc3c(C)c(O)c4c(=O)c(c5oc6cc(OCCNC(C)=O)cc(O)c6nc-5c4c3C2=O)NC(=O)/C(C)=C\C=C\[C@H](C)[C@H](O)[C@@H](C)[C@@H](O)[C@@H](C)[C@H](OC(C)=O)[C@@H]1C [Analog 29i]

>  <Target system>
intracellular S. aureus NRS384 in THP-1 macrophages

>  <Inequality operator>
=

>  <MIC, µM>
0.2

$$$$
>  <Compound>
CO[C@H]1/C=C/O[C@@]2(C)Oc3c(C)c(O)c4c(=O)c(c5oc6ccc(OCCN(C)C)cc6nc-5c4c3C2=O)NC(=O)/C(C)=C\C=C\[C@H](C)[C@H](O)[C@@H](C)[C@@H](O)[C@@H](C)[C@H](OC(C)=O)[C@@H]1C

>  <Target system>
intracellular S. aureus NRS384 in THP-1 macrophages

>  <Inequality operator>
=

>  <MIC, µM>
1

$$$$
>  <Compound>
CCCCOc1cc(OCCN(C)C)cc2oc3c4c(=O)c5c(O)c(C)c6c(c5c-3nc12)C(=O)[C@@](C)(O/C=C/[C@H](OC)[C@@H](C)[C@@H](OC(C)=O)[C@H](C)[C@H](O)[C@H](C)[C@@H](O)[C@@H](C)/C=C/C=C(/C)C(=O)N4)O6

>  <Target system>
intracellular S. aureus NRS384 in THP-1 macrophages

>  <Inequality operator>
=

>  <MIC, µM>
1

$$$$
>  <Compound>
CO[C@H]1/C=C/O[C@@]2(C)Oc3c(C)c(O)c4c(=O)c(c5oc6cc(OCCN(C)C)cc(Cl)c6nc-5c4c3C2=O)NC(=O)/C(C)=C\C=C\[C@H](C)[C@H](O)[C@@H](C)[C@@H](O)[C@@H](C)[C@H](OC(C)=O)[C@@H]1C

>  <Target system>
intracellular S. aureus NRS384 in THP-1 macrophages

>  <Inequality operator>
=

>  <MIC, µM>
1

$$$$
>  <Compound>
CO[C@H]1/C=C/O[C@@]2(C)Oc3c(C)c(O)c4c(=O)c(c5oc6cc(OCCN7CCC7)ccc6nc-5c4c3C2=O)NC(=O)/C(C)=C\C=C\[C@H](C)[C@H](O)[C@@H](C)[C@@H](O)[C@@H](C)[C@H](OC(C)=O)[C@@H]1C [Analog 16z-1]

>  <Target system>
intracellular S. aureus NRS384 in THP-1 macrophages

>  <Inequality operator>
=

>  <MIC, µM>
1

$$$$
>  <Compound>
CO[C@H]1/C=C/O[C@@]2(C)Oc3c(C)c(O)c4c(=O)c(c5oc6cc(OCCN(C)C)cc(F)c6nc-5c4c3C2=O)NC(=O)/C(C)=C\C=C\[C@H](C)[C@H](O)[C@@H](C)[C@@H](O)[C@@H](C)[C@H](OC(C)=O)[C@@H]1C

>  <Target system>
intracellular S. aureus NRS384 in THP-1 macrophages

>  <Inequality operator>
=

>  <MIC, µM>
0.2

$$$$
>  <Compound>
CO[C@H]1/C=C/O[C@@]2(C)Oc3c(C)c(O)c4c(O)c(c(/C=N/N5CCN(C)CC5)c(O)c4c3C2=O)NC(=O)/C(C)=C\C=C\[C@H](C)[C@H](O)[C@@H](C)[C@@H](O)[C@@H](C)[C@H](OC(C)=O)[C@@H]1C [Rifampicin, rifampicin, reference compound]

>  <Target system>
intracellular S. aureus NRS384 in THP-1 macrophages

>  <Inequality operator>
=

>  <MIC, µM>
1

$$$$
>  <Compound>
CO[C@H]1/C=C/O[C@@]2(C)Oc3c(C)c(O)c4c(=O)c(c5oc6cc(OCCN7CC8CCC7C8)ccc6nc-5c4c3C2=O)NC(=O)/C(C)=C\C=C\[C@H](C)[C@H](O)[C@@H](C)[C@@H](O)[C@@H](C)[C@H](OC(C)=O)[C@@H]1C [Analog 16q]

>  <Target system>
intracellular S. aureus NRS384 in THP-1 macrophages

>  <Inequality operator>
=

>  <MIC, µM>
1

$$$$
>  <Compound>
CO[C@H]1/C=C/O[C@@]2(C)Oc3c(C)c(O)c4c(=O)c(c5oc6cc(OCCn7ccnc7)ccc6nc-5c4c3C2=O)NC(=O)/C(C)=C\C=C\[C@H](C)[C@H](O)[C@@H](C)[C@@H](O)[C@@H](C)[C@H](OC(C)=O)[C@@H]1C [Analog 16y]

>  <Target system>
intracellular S. aureus NRS384 in THP-1 macrophages

>  <Inequality operator>
>

>  <MIC, µM>
1

$$$$
>  <Compound>
CO[C@H]1/C=C/O[C@@]2(C)Oc3c(C)c(O)c4c(=O)c(c5oc6cc(OCCNC(C)=O)ccc6nc-5c4c3C2=O)NC(=O)/C(C)=C\C=C\[C@H](C)[C@H](O)[C@@H](C)[C@@H](O)[C@@H](C)[C@H](OC(C)=O)[C@@H]1C [Analog 16x]

>  <Target system>
intracellular S. aureus NRS384 in THP-1 macrophages

>  <Inequality operator>
>

>  <MIC, µM>
1

$$$$
>  <Compound>
CO[C@H]1/C=C/O[C@@]2(C)Oc3c(C)c(O)c4c(=O)c(c5oc6cc(OCCN(C)C(C)=O)cc(O)c6nc-5c4c3C2=O)NC(=O)/C(C)=C\C=C\[C@H](C)[C@H](O)[C@@H](C)[C@@H](O)[C@@H](C)[C@H](OC(C)=O)[C@@H]1C [Analog 29j]

>  <Target system>
intracellular S. aureus NRS384 in THP-1 macrophages

>  <Inequality operator>
=

>  <MIC, µM>
0.04

$$$$
>  <Compound>
CO[C@H]1/C=C/O[C@@]2(C)Oc3c(C)c(O)c4c(=O)c(c5oc6cc(OCCNCCN)ccc6nc-5c4c3C2=O)NC(=O)/C(C)=C\C=C\[C@H](C)[C@H](O)[C@@H](C)[C@@H](O)[C@@H](C)[C@H](OC(C)=O)[C@@H]1C

>  <Target system>
intracellular S. aureus NRS384 in THP-1 macrophages

>  <Inequality operator>
>

>  <MIC, µM>
1

$$$$
>  <Compound>
CO[C@H]1/C=C/O[C@@]2(C)Oc3c(C)c(O)c4c(=O)c(c5oc6cc(OCCN(C)C(C)=O)ccc6nc-5c4c3C2=O)NC(=O)/C(C)=C\C=C\[C@H](C)[C@H](O)[C@@H](C)[C@@H](O)[C@@H](C)[C@H](OC(C)=O)[C@@H]1C [Analog 16z]

>  <Target system>
intracellular S. aureus NRS384 in THP-1 macrophages

>  <Inequality operator>
>

>  <MIC, µM>
1

$$$$
>  <Compound>
COc1cc(OCCN(C)C)cc2oc3c4c(=O)c5c(O)c(C)c6c(c5c-3nc12)C(=O)[C@@](C)(O/C=C/[C@H](OC)[C@@H](C)[C@@H](OC(C)=O)[C@H](C)[C@H](O)[C@H](C)[C@@H](O)[C@@H](C)/C=C/C=C(/C)C(=O)N4)O6

>  <Target system>
intracellular S. aureus NRS384 in THP-1 macrophages

>  <Inequality operator>
=

>  <MIC, µM>
0.04

$$$$
